Assay: NCI Yeast Anticancer Drug Screen. Data for the rad50 strain (AID 155);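 further: 0% = growth of vehicle-only cultures of the same strain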
Conditions: S. cerevisiae rad50 strain growth inhibition; at 50.0 µM
About 79,000 compounds went through this panel and 15% of them were active in at least one assay; those are over-represented in the sample as a whole. Calls of active or inactive are those of the source. No stated cut-off is given here; in the data, active means growth inhibition above about 70%; inactive means the rest.
Respond using exactly one of the listed classes: true (1) = active, false (0) = inactive

O=C(Nc1ccccc1)c1cc([N+](=O)[O-])ccc1O
true (1)
O=C(CI)NCc1ccccc1
true (1)
NC(N)=N/N=C1\C(=O)N(c2ccc(Cl)cc2)C(=O)C1C(=O)Nc1ccc(Cl)cc1 (configuration not stated)
false (0)
CNC1=C(C)C(=O)C2=C(C1=O)C(COC(N)=O)C1(O)C3C(CN21)N3C (configuration not stated)
true (1)
ClCCCCCl
false (0)
CCC[CH2][Sn]1([CH2]CCC)[O]Cc2nc(C)ccc2[O]1
true (1)
CC(=O)O[C@H]1CC[C@H]2[C@@H]3CC[C@H]4CC(=O)CC[C@@H]4[C@H]3CC[C@]12C
false (0)
FC(F)(F)c1cccc(CCl)c1
false (0)
Cc1nc2ccccc2cc1C[N+]12CN3CN(CN(C3)C1)C2
true (1)
O=C1C2CCN(CC2)C1CN1CCOCC1 (configuration not stated)
true (1)

stdin: Tell me the assay call for `CCC[CH2][Sn]([F])([CH2]CCC)[O][Sn]([F])([CH2]CCC)[CH2]CCC` please.
stdout: true (1)

---

Test: NCI Yeast Anticancer Drug Screen. Data for the bub3 strain (AID 167)
Conditions: S. cerevisiae bub3 mutant strain, at 5.0 µM (retest, dose inferred, filed as 0.5)
About 79,000 compounds went through this panel and 15% of them were active in at least one assay; those are over-represented in the sample as a whole. Calls of active or inactive are those of the source. Cut-off read from the data, not from the text of the source: active = growth inhibition above about 70%; inactive = the rest.
Respond using exactly one of the listed classes: 1 = active, 0 = inactive

Past entries and their recorded results:
CC12CCC(O)CC1CCC1C2CCC2(C)C1CC1CC(=O)OC12 (stereo not given)
1
Cc1cccc(C)c1NC(=O)/C(CC(=O)CC(c1ccccc1)c1c(O)c2ccccc2oc1=O)=N/O (stereo not given)
0
COC(=O)[C@@]12OC[C@]34[C@H]([C@@H](O)[C@@H]1O)[C@@]1(C)CC(=O)C(O)=C(C)[C@@H]1C[C@H]3OC(=O)[C@H](OC(=O)/C=C(\C)C(C)C)[C@@H]24
1
Cc1cc(NCc2ccccc2)c2ccccc2[n+]1CCCCCCCCCC[n+]1c(C)cc(NCc2ccccc2)c2ccccc21
1
CCC(C)c1cc([N+](=O)[O-])cc([N+](=O)[O-])c1O (stereo not given)
0

stdin: Tell me the assay call for `CCOc1ccc(/C=C/[N+](=O)[O-])cc1[N+](=O)[O-]` please.
stdout: 0

stdin: Tell me the assay call for `CCOC(=O)/C(=C\c1ccc(C(=O)OC)cc1)[Se]c1ccccc1` please.
stdout: 0

stdin: Tell me the assay call for O=C1C2CCN(CC2)C1CN1CCOCC1 (stereo not given) please.
stdout: 0

stdin: Tell me the assay call for CCC[CH2][Sn]1([CH2]CCC)[O]C(=O)C(C(C)C)N=Cc2ccccc2[O]1 (stereo not given) please.
stdout: 0

stdin: Tell me the assay call for `COc1cc(N(CCCl)CCCl)ccc1C=Nc1cccc(Cl)c1` please.
stdout: 0

stdin: Tell me the assay call for `Cc1cc(-c2ccccc2)cc(C)[n+]1[O-]` please.
stdout: 0

stdin: Tell me the assay call for CC(C)=CC1CC(C)C2(CCC3(C)CC4C(C(=O)CC4(C)O)/C(C=O)=C\CC32)O1 (stereo not given) please.
stdout: 1

stdin: Tell me the assay call for COc1cc2c3c(c1)-c1c(ccc(OC)c1OC)CC3N(CCCl)CC2 (stereo not given) please.
stdout: 0

stdin: Tell me the assay call for `C[CH2][Sn][CH2]C.c1cc[c]([Ge]([c]2ccccc2)[c]2ccccc2)cc1.c1cc[c]([Sn]([c]2ccccc2)[c]2ccccc2)cc1` please.
stdout: 1

stdin: Tell me the assay call for `COc1ccc(/C=C/[N+](=O)[O-])c(OC)c1OC` please.
stdout: 0

stdin: Tell me the assay call for `CN(C)c1ccc(C2N(Cc3ccc(N(CCCl)CCCl)cc3Cl)CCCN2Cc2ccc(N(CCCl)CCCl)cc2Cl)cc1` please.
stdout: 0

stdin: Tell me the assay call for `COP(=S)(OC)N(C)C(=O)Oc1cccc2ccccc12` please.
stdout: 0

stdin: Tell me the assay call for CCOC(=O)C(/N=N\c1nn[nH]n1)/N=N/c1ncn[nH]1 (stereo not given) please.
stdout: 0

stdin: Tell me the assay call for CCCCCCCC1(c2ccc(N)cc2)CCC(=O)NC1=O (stereo not given) please.
stdout: 0

stdin: Tell me the assay call for `CCC[CH2][Pb]([Cl])([CH2]CCC)[CH2]CCC` please.
stdout: 1
